Hello, the source for this data is the supplement of paper PMC12042874, in case you need it.

- assayProtocol: amyloid nucleation score (Sup35N fusion, yeast selection) (log enrichment); library NNK2; higher = more nucleation; inactive = no reads after selection;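 further: zero at mode of non-aggregating sequences after 7 days selection at 30°C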
Note to self: values exactly at 0.7 are Yes. So amyloid nucleation score at or above 0.7 is Yes, below is No.

Study these solved cases before continuing.
AFVCMRVVLICKIRLNFVRA = No
LCVYNPNVKYVHPCWTASGG = No
YTGIESE = Yes
FGIFEQMMFLHNVCSDFTAS = No
IFLCFGYYNLEVLCFDTRCQ = Yes

Decide: is the reported value of amyloid nucleation score for YVTCCSGVGVMLFRCANLNC equal to or greater than 0.7?
Yes

Does amyloid nucleation score meet or surpass 0.7 for YCLSDKWTLCG ?
No

Is reported amyloid nucleation score greater than or equal to 0.7 here: GGVYASKYLCGYIKLSLKAS
No

Answer whether amyloid nucleation score of CYSLSYLILVCR is greater than or equal to 0.7.
Yes

hey, is amyloid nucleation score for this one >= 0.7? LLEFTLLTISQRPYTWNTVE
Yes

Decide: is the reported value of amyloid nucleation score for VCGGVRYYLNTFYIKR equal to or greater than 0.7?
Yes
